B1: Hairpin Ribozyme (parent)
chain: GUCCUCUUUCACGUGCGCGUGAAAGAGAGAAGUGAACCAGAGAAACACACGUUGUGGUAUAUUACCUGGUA

Variants of: B1
ASSAY: self-cleavage, relative activity (ratio to wild type); higher = more cleavage; co-transcriptional
Parameter self-cleavage: see the listing below.

VARIANT ANNOTATION	self-cleavage
C4A C16U	0.197
G17C C38A	0.199

Please look at the following variant next.
Name the reported self-cleavage value associated with the variant G32C A59C 0.198
